# target.of.assay: T1, human Trop-2 on the surface of cells (CHO/Trop-2 cells; BxPC-3 cells; NCI-N87 cells) (human, UniProt P09758 27-323)
# T1 sequence (looked up): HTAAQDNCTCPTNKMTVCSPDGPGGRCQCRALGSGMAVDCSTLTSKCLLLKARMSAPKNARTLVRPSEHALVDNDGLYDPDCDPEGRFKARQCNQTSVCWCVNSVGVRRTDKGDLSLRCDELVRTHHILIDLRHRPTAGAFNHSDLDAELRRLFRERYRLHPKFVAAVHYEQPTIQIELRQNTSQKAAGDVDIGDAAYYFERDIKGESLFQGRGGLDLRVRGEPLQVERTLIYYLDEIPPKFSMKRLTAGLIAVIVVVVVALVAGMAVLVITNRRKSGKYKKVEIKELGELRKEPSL
# protocol.details: cell-based or functional assay
This section presents binders with their documented Internalization percentage (%), 1 h, BxPC-3 cells, FACS values.
# number only, unit % dropped from output

Query: Internalization percentage (%), 1 h, BxPC-3 cells, FACS lookup needed for chimeric antibody ch23-12 (antibody, human IgG1, V domains shown) VH: QVQLQQPGAELVKPGASVKLSCKADGYIFTSYWMHWVKQRPGQGLEWIGEITPSDNYTSYNQKFKGKATLTVDKSSSTAYMQLSSLTSEDSAVYYCTRGHGNYVSFDYWGQGTTLTVSS VL: DIQMTQITSSLSASLGDRVTITCRASQDISNYLNWYQQKPDGTVKLLIYYTSRLHSGVPSRFSGSGSGTDYSLTISNLEQEDIATYFCQQGYTLPPYTFGGGTKLEIK , thanks.
Result: 16.2

Query: Internalization percentage (%), 1 h, BxPC-3 cells, FACS lookup needed for Sacituzumab (antibody, human IgG1, kappa, V domains shown, expressed in HEK293; also called control antibody Sacituzumab; Saituzumab) VH: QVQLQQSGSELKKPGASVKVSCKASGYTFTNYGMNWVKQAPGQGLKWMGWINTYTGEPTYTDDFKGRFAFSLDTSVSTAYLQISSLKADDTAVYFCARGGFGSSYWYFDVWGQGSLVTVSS VL: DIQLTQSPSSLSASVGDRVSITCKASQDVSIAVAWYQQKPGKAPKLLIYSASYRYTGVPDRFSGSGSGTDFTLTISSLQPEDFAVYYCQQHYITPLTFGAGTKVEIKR , thanks.
Result: 17.2

Query: Internalization percentage (%), 1 h, BxPC-3 cells, FACS lookup needed for chimeric antibody ch4-3 (antibody, human IgG1, V domains shown) VH: QVQLQQSGPELVKPGASVKMSCKASGFTFTDYVIGWVKQRTGQGLEWIGEIYLGSGTIYYTEKFKGKATLTADTSSNTAYMQLSSLTSEDSAVYFCARGSIFPFDYWGQGTTLTVSS VL: QIVLTQSPAIMSASPGEKVTMTCSASSSVSYMYWYQQKPGSSPRLLIYDTSTLASGVPVRFSGSGSGTSYSLTISRMEAEDAATYYCQQWSSYPYTFGGGTKLEIK , thanks.
Result: 17.1

Query: Internalization percentage (%), 1 h, BxPC-3 cells, FACS lookup needed for chimeric antibody ch3-11 (antibody, human IgG1, V domains shown) VH: QVQLQQPGAELVKPGSSVKLSCKASGYTFTSYWMYWVKQRPGQGLEWIGEINPSNGRTNYNEKFKSKATLTVDKSSSTAYMQFSSLTSEDSAVYYCTREGHNYDGSLGAMDHWGQGTSVTVSS VL: DVVVTQTPLSLPVSFGDQVSISCRSSQSLTNSYGNTFLSWYLHKPGQSPQLLLYGISNRFSGVPDRFSGSGSGTDFTLKINTIKPEDLGMYYCFQSTHQPYTFGGGTKLEIK , thanks.
Result: 1.12
